# Test system: Escherichia coli
# assay text: Activity of Escherichia coli DH5alpha beta-lactamase TEM-12 by microacidimetric method
# Lookup of reported Km keyed by entry
// return numeric value only (unit: µM, not printed)

[[record]]
input_smiles = "C[C@H]1[C@H](NC(=O)/C(=N\\OC(C)(C)C(=O)O)c2csc(N)n2)C(=O)N1S(=O)(=O)O"
target_system = "Escherichia coli"
reported_value = 247


// switching to the query compound
Query: Which value of Km has been reported for CC1(C)S[C@@H]2[C@H](NC(=O)[C@H](N)c3ccc(O)cc3)C(=O)N2[C@H]1C(=O)O in the records?
Response: 7.5

###

# System: Escherichia coli
# assay text: Activity of Escherichia coli CF0042 beta-lactamase TEM-35 by microacidimetric method
# Lookup of reported Km keyed by entry
// return numeric value only (unit: µM, not printed)

[[record]]
input_smiles = "CC1(C)S[C@@H]2[C@H](NC(=O)[C@H](C(=O)O)c3ccsc3)C(=O)N2[C@H]1C(=O)O"
observable = "Km"
unit_of_measurement = "µM"
reported_value = 320

[[record]]
input_smiles = "CC1(C)S[C@@H]2[C@H](NC(=O)[C@H](N)c3ccc(O)cc3)C(=O)N2[C@H]1C(=O)O"
observable = "Km"
unit_of_measurement = "µM"
reported_value = 245

[[record]]
input_smiles = "CC(=O)OCC1=C(C(=O)O)N2C(=O)[C@@H](NC(=O)Cc3cccs3)[C@H]2SC1"
observable = "Km"
unit_of_measurement = "µM"
reported_value = 1200


Query: Give recorded Km with Escherichia coli for the following compound: CC1(C)S[C@@H]2[C@H](NC(=O)Cc3ccccc3)C(=O)N2[C@H]1C(=O)O
Response: 140

Query: Give recorded Km with Escherichia coli for the following compound: CCN1CCN(C(=O)N[C@@H](C(=O)N[C@@H]2C(=O)N3[C@@H]2SC(C)(C)[C@@H]3C(=O)O)c2ccccc2)C(=O)C1=O
Response: 320
